Data provenance: patent US20230250096A1

- Test target: menin/MLL (terbium chelate-labeled menin, FITC-MBM1 peptide) (Homo sapiens, UniProt O00255, T541A)
- Construct: Menin (a.a 1-610-6xhis tag, 2.3 mg/mL in 20 mM Hepes)
- Test method notes: Menin/MLL homogenous time-resolved fluorescence (HTRF) assay
- Protocol conditions: 30 min incubation
Quantity name: IC50 (nM)

CN=[S@](=O)(c1cc(F)ccc1-n1cc(C[C@@H]2CCN(CC3CCN(C(C)=O)CC3)C2)c2c(C)cncc21)C(C)C (single isomer, unassigned) [Compound 128a]	0.151

(I) Cc1cncc2c1c(C[C@H]1CCN(CC3CCOCC3)C1)cn2-c1ccc(F)cc1[S@@](=N)(=O)C(C)C (single isomer, unassigned) [Compound 78d]
(II) CC(=O)N1CCC(CN2CC[C@@H](Cc3cn(-c4ccc(F)cc4C(=O)N4CCCCC4C)c4cncc(C)c34)C2)CC1 (stereo partly drawn)
(III) CN=S(=O)(c1cc(F)ccc1-n1cc(CC2CN(CC3CCOCC3)C2)c2c(C)cncc21)C(C)C (stereo not drawn)
(IV) Cc1cncc2c1c(C[C@H]1CCN(CC3CCC(=O)NC3)C1)cn2-c1ccc(F)cc1C(=O)N(C)C(C)C (mixture of isomers)
(V) CC(=O)N1CCC(CN2CC[C@@H](Cc3cn(-c4ccc(F)cc4C(=O)NC(C)C)c4cncc(C)c34)C2)CC1
Give the ascending ranking of the items by reported IC50. Your answer should be the labels, listed in the requested order.
IV, III, II, I, V
(IV: 0.093 nM, III: 0.168 nM, II: 0.291 nM, I: 0.875 nM, V: 1.94 nM)

(I) CC(=O)NC(C)CN1CCC(Cc2cn(-c3ccc(F)cc3C(=O)N(C)C(C)C)c3cncc(C)c23)C1 (single isomer, unassigned) [Compound 119a]
(II) CC(=O)N1CC[C@@H](CN2CCC(Cc3cn(-c4ccc(F)cc4C(=O)N(C)C(C)C)c4cncc(C)c34)C2)C1 (single isomer, unassigned)
(III) CC(=O)N1CCC([C@@H](C)N2CC[C@@H](Cc3cn(-c4ccc(F)cc4[S@@](=N)(=O)C(C)C)c4cncc(C)c34)C2)CC1 (single isomer, unassigned) [Compound 231a]
Put the items in sequence by IC50, from largest down. Your answer should be the labels, listed in the requested order.
I, III, II
(I: 0.906 nM, III: 0.311 nM, II: 0.217 nM)

(a) Cc1cncc2c1c(C[C@@H]1CCN(C[C@@H]3CCOC3)C1)cn2-c1ccc(F)cc1C(=O)N(C)C(C)C (single isomer, unassigned) [Compound 190b]
(b) COCCN(C)C(=O)N1CCC(CN2CC[C@@H](Cc3cn(-c4ccc(F)cc4C(=O)N(C)C(C)C)c4cncc(C)c34)C2)CC1
Of the two listed items, which has the higher IC50? First: a Second: b Your answer should be the label attached to the chosen record.
b
(b: 0.134 nM, a: 0.063 nM)

====

- Test system: KO-52 cells
- Test method notes: Proliferation assay (spheroid confluence, 8 days), KO-52 control cell line
- Format: cell-based, human
- Protocol conditions: Homo sapiens, read-out: spheroid assay_KO-52 IC50
- Description: The anti-proliferative effect of menin/MLL protein/protein interaction inhibitor test compounds was assessed in human leukemia cell lines. […] In order to assess the anti-proliferative effects, 200 MOLM14 cells, 200 OCI-AML3 cells or 300 KO-52 cells were seeded in 200 μl media per well in 96-well round bottom, ultra-low attachment plates (Costar, catalogue number 7007). […] Spheroid like growth was measured in real-time by live-cell imaging (IncuCyteZOOM, Essenbio, 4×objective) acquiring images at day 8. […]
In this section, each of the compounds is paired with its reported IC50.
Just the number please, in µM, no unit attached.

Cc1cncc2c1c(C[C@@H]1CCN(CC3CCOCC3)C1)cn2-c1ccc(F)cc1C(=O)N(C)C(C)C (single isomer, unassigned)	2.8
CC(=O)N1CCC([C@H](CO)N2CC[C@@H](Cc3cn(-c4ccc(F)cc4C(=O)N(C)C(C)C)c4cncc(C)c34)C2)CC1 (single isomer, unassigned) [Compound 206a]	6.6

Endpoint output: IC50 of Cc1cncc2c1c(CC1CN(CC3CCC(O)CC3)C1)cn2-c1ccc(F)cc1C(=O)N(C)C(C)C (centres unmarked) . Value?
6.5

Same again, this time with CN=S(=O)(c1cc(F)ccc1-n1cc(CC2CN(CC3CCOCC3)C2)c2c(C)cncc21)C(C)C (centres unmarked)
9.4

====

- Test target: menin/MLL (terbium chelate-labeled menin, FITC-MBM1 peptide) (Homo sapiens, UniProt O00255, T541A)
- Construct: Menin (a.a 1-610-6xhis tag, 2.3 mg/mL in 20 mM Hepes)
- Test method notes: Menin/MLL homogenous time-resolved fluorescence (HTRF) assay
- Protocol conditions: 30 min incubation
pIC50: −log10 of the molar value.
Quantity name: pIC50

Examples with their reported pIC50 follow.
Cc1cncc2c1c(CC1CN([C@H]3CCN4C(=O)CCC4C3)C1)cn2-c1ccc(F)cc1C(=O)N(C)C(C)C (single isomer, unassigned) [Compound 309b]	9.95
CC(=O)N1CCC2(CCC2N2CC(Cc3cn(-c4ccc(F)cc4C(=O)N(C)C(C)C)c4cncc(C)c34)C2)CC1 (stereo not drawn)	9.47
Cc1cncc2c1c(C[C@@H]1CCN(CC3CCNC(=O)CC3)C1)cn2-c1ccc(F)cc1C(=O)N1CCC[C@H]1C (single isomer, unassigned) [Compound 353b]	9.62

(a) Cc1cncc2c1c(CC1CN(CC3CCOCC3)C1)cn2-c1ccc(F)cc1C(=O)N1CC2CC1CO2 (stereo not drawn)
(b) CC(=O)N1CCC(CN2C[C@H](Cc3cn(-c4ccc(F)cc4C(=O)N(C)C(C)C)c4cncc(C)c34)C[C@H]2C)CC1
Of the two listed items, which has the higher pIC50? First: a Second: b Your answer should be the label attached to the chosen record.
a

====

- Test target: menin/MLL (terbium chelate-labeled menin, FITC-MBM1 peptide) (Homo sapiens, UniProt O00255, T541A)
- Construct: Menin (a.a 1-610-6xhis tag, 2.3 mg/mL in 20 mM Hepes)
- Test method notes: Menin/MLL homogenous time-resolved fluorescence (HTRF) assay
- Protocol conditions: 30 min incubation
Quantity name: IC50 (nM)

CC(C)C([C@H]1C[C@@H](N(C)C)C1)N1CC(Cc2cn(-c3ccc(F)cc3C(=O)N(C)C(C)C)c3cncc(Cl)c23)C1 (stereo partly drawn)	0.202

(I) Cc1cncc2c1c(C[C@H]1CCN([C@@H](C)C3CCOCC3)C1)cn2-c1ccc(F)cc1[S@@](=N)(=O)C(C)C (single isomer, unassigned) [Compound 183b]
(II) Cc1cncc2c1c(C[C@@H]1CCN(CC3CCOCC3)C1)cn2-c1ccc(F)cc1C(=O)N1CCC[C@@H]1CO
(III) COC(=O)c1cc(F)ccc1-n1cc(C[C@@H]2CCN(CC3CCOCC3)C2)c2c(C)cncc21
Put the items in sequence by IC50, from largest down. Your answer should be the labels, listed in the requested order.
I, III, II

====

- Test target: menin/MLL (terbium chelate-labeled menin, FITC-MBM1 peptide) (Homo sapiens, UniProt O00255, T541A)
- Construct: Menin (a.a 1-610-6xhis tag, 2.3 mg/mL in 20 mM Hepes)
- Sequence (O00255 with tags, fused parts or gaps T541A): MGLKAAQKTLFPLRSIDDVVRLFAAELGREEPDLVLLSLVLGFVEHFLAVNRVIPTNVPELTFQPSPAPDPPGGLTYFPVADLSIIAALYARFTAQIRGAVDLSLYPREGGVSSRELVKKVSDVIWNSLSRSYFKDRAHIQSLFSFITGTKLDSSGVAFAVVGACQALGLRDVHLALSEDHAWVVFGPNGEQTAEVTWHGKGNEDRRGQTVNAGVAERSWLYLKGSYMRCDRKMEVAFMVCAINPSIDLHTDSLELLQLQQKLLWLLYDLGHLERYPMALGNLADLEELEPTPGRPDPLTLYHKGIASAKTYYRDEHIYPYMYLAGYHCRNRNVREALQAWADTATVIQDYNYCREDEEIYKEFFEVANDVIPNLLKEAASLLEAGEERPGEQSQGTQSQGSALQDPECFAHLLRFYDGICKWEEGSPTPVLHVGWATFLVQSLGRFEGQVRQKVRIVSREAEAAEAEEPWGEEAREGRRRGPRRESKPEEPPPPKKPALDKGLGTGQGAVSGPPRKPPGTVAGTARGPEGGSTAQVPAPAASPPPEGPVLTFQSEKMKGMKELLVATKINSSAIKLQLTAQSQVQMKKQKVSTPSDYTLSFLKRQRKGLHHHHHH
- Test method notes: Menin/MLL homogenous time-resolved fluorescence (HTRF) assay
- Protocol conditions: 30 min incubation
Quantity name: IC50 (nM)

(1) CC(=O)N1C[C@@H]2CN(CCC[C@H](C(C)C)N3CC[C@H](Cc4cn(-c5ccc(F)cc5C(=O)N(C)C(C)C)c5cncc(Cl)c45)C3)C[C@H]2C1 (single isomer, unassigned) [Compound 19a]
(2) CCC(C1CCN(C(C)=O)CC1)N1CC[C@@H](Cc2cn(-c3ccc(F)cc3C(=O)N(C)C(C)C)c3cncc(C)c23)C1 (single isomer, unassigned) [Compound 247]
I'm curious whether 1 or 2 has the smaller IC50 number. Which is it? Your answer should be the label attached to the chosen record.
1
(1: 0.032 nM, 2: 0.179 nM)

(a) CNC(=O)[C@H]1CC[C@H](CN2CC([C@@H](C)c3cn(-c4ccc(F)cc4C(=O)N(C)C(C)C)c4cncc(C)c34)C2)CC1 (single isomer, unassigned) [Compound 164a]
(b) CC(=O)N1C[C@@H]2[C@H](CN3CC[C@@H](Cc4cn(-c5ccc(F)cc5C(=O)N(C)C(C)C)c5cncc(C)c45)C3)[C@@H]2C1
Of the two listed items, which has the higher IC50? First: a Second: b Your answer should be the label attached to the chosen record.
b

(A) CC(=O)N1CCC(CN2CC[C@@H](Cc3cn(-c4ccc(F)cc4C(=O)N4CCC45CCC5)c4cncc(C)c34)C2)CC1
(B) COCCNCCCC(C(C)C)N1CC[C@H](Cc2cn(-c3ccc(F)cc3C(=O)N(C)C(C)C)c3cncc(C)c23)C1 (mixture of isomers)
(C) CC(=O)N1CCC(CN2CCC[C@H](Cc3cn(-c4ccc(F)cc4C(=O)N(C)C(C)C)c4cncc(C)c34)C2)CC1
Give the ascending ranking of the items by reported IC50. Your answer should be the labels, listed in the requested order.
B, A, C
(B: 0.04 nM, A: 0.119 nM, C: 1.06 nM)

(A) Cc1cncc2c1c(C[C@@H]1CCN(C[C@H]3CC[C@H](C(=O)N4CCC4)CC3)C1)cn2-c1ccc(F)cc1C(=O)N(C)C(C)C
(B) Cc1cncc2c1c(C[C@@H]1CCN([C@H](C)C3CCOCC3)C1)cn2-c1ccc(F)cc1[S@](=N)(=O)C(C)C (single isomer, unassigned) [Compound 180a]
(C) Cc1cncc2c1c(CC1CCN(CC3CCN(C(=O)CC4CS(=O)(=O)C4)CC3)C1)cn2-c1ccc(F)cc1C(=O)N(C)C(C)C (single isomer, unassigned) [Compound 106]
Put the items in sequence by IC50, from largest down. Your answer should be the labels, listed in the requested order.
A, B, C
